Test system: PC-3
Test: NCI tumour cell line growth inhibition, 48 h
Active and inactive are the calls of the source. Rule as the data show it: active = GI50 up to about 1.1 µM and inactive = higher.
What GI50 was measured for each of the following?

Q: Which GI50 reading was recorded for the molecule "Cc1ccc(-c2cc(O)c3nc4ccccc4n3c2)cc1" ?
Ans: > 100 µM (inactive)

Q: Using the record for CCOc1ccc(NC(=O)C(=O)C(/C(=N/N)C(=O)OC)c2nc3ccc([N+](=O)[O-])cc3nc2O)cc1 (centres undefined) , report its GI50.
Ans: > 100 µM (inactive)

Q: State the recorded GI50 for this entry: "O=C(O)CCCCn1cnc2c(S)ncnc21"
Ans: > 100 µM (inactive)

Q: Look up GI50: "O=C(O)CCC(=O)c1ccc[nH]1"
Ans: > 100 µM (inactive)

Q: Entry "CCOP(=O)(OCC)/C(C#N)=C/c1cnc(C)[nH]1" has what GI50?
Ans: > 100 µM (inactive)

Q: So what does the record say about GI50 for CC(O)(/C=C/c1ccccc1)P(=O)(O)c1ccccc1 (centres undefined) ?
Ans: > 100 µM (inactive)

Q: Given O=c1[nH]c(N/N=C\C(O)C(O)C(O)CO)nc2ccccc12 (centres undefined) , state its recorded GI50.
Ans: > 100 µM (inactive)

Q: GI50 for "COc1ccc(Nc2nc3cc(C(F)(F)F)ccc3nc2C(=O)O)cc1OC" ?
Ans: 36.9 µM (inactive)

Q: Recorded GI50 for "CC(=O)O[C@@H]1[C@H]2O[C@H]2[C@H]2O[C@@]2(COC(=O)c2ccccc2)[C@H]1OC(C)=O" , please?
Ans: > 100 µM (inactive)

Q: Need GI50, item c1c[nH]c(C23C4C5C6C4C2C6C53)n1 (centres undefined)
Ans: > 100 µM (inactive)

Q: What value of measured GI50 is listed for "CCC(=O)O[C@H]1CC[C@H]2[C@@H]3CCC4=C/C(=N/OC(=O)c5cccc6c(=O)c7ccccc7[nH]c56)CC[C@]4(C)[C@H]3CC[C@]12C" ?
Ans: 26.9 µM (inactive)

Q: For the molecule shown here, "Cc1nc2ccccc2[nH]/c1=N/Nc1ccccc1" , give the reported GI50.
Ans: 26.1 µM (inactive)

Q: Field request: GI50 | item: "Cc1oc2c(c1C)S(=O)(=O)C(C#N)=C(N(C)C)N2"
Ans: > 100 µM (inactive)

Q: # get_value(readout='GI50', item= CC1=NN(c2ccccc2)C(=O)C1/N=N/c1ccc([As](=O)(O)O)c(O)c1 (centres undefined) )
Ans: > 100 µM (inactive)

Q: Please look up its GI50: C=CCC1(O)C(=O)OC2C(O)COC21O (centres undefined)
Ans: > 100 µM (inactive)

Q: So what does the record say about GI50 for "C1=C(CC2=C[P+](c3ccccc3)(c3ccccc3)C=C(c3ccccc3)O2)OC(c2ccccc2)=C[P+]1(c1ccccc1)c1ccccc1" ?
Ans: 0.337 µM (active)

Q: Fill in the blank: the reported GI50 of CC[C@H]1CN(C)[C@H]2Cc3c([nH]c4ccccc34)C(=O)C[C@H]1C2C(=O)OC (some centres undefined) is ____.
Ans: > 100 µM (inactive)

Q: Need GI50, item "CC(C)c1nc(Cl)nc(Cl)c1Cl"
Ans: 0.401 µM (active)

Q: Query: GI50; subject: "Oc1c([Si](c2ccccc2)(c2ccccc2)c2ccccc2)cc2ccccc2c1-c1c(O)c([Si](c2ccccc2)(c2ccccc2)c2ccccc2)cc2ccccc12"
Ans: > 100 µM (inactive)

Q: Give its GI50 value. Item: "Cc1ccc(/N=C2\C(=N/c3ccc(C)cc3)N(c3ccc(C)cc3)C(=S)N2C(=O)c2ccccc2)cc1"
Ans: > 100 µM (inactive)

Q: Sample NP(=O)(Oc1c2occc2cc2ccc(=O)oc12)N(CCCl)CCCl (centres undefined) — what was its GI50?
Ans: > 100 µM (inactive)

Q: Look up GI50: "Fc1cc(-c2cc(-c3ccccc3)n[nH]2)c(Cl)cc1Cl"
Ans: > 100 µM (inactive)

Q: Field request: GI50 | item: "Cc1ccc(-c2c(C#N)c(-c3ccc(N(C)C)cc3)c(C#N)c(=O)n2NS(=O)(=O)c2ccccc2)cc1"
Ans: 33.4 µM (inactive)

Q: I would be grateful if you could share the reported GI50 for CC(C1CCCC1=O)C1CCCC1=O (centres undefined) .
Ans: > 100 µM (inactive)

Q: Could you share which GI50 value was measured for "C/C(=N\c1ccc(Cl)c(Cl)c1)c1ccncc1" ?
Ans: > 100 µM (inactive)

Q: Bench note: what GI50 did "C/C(=N\NC(=S)N/N=C(\C)c1ccccn1)c1ccccn1" show?
Ans: 1.27 µM (inactive)

Q: What value of measured GI50 is listed for "COc1ccccc1/N=C1\SCCN1C(=S)Nc1ccc(S(=O)(=O)/N=C/N(C)C)cc1" ?
Ans: > 100 µM (inactive)

Q: What does the record list as GI50 for COC(=O)C1(Cc2ccccc2)Cc2cc3c(cc2C1O)CCC3 (centres undefined) ?
Ans: 19 µM (inactive)

Q: // GI50 lookup, key: CCC(O)CC1OC2(CCC1C)CC1OC(=O)/C=C\C(C)(O)C(O)C(C)C(O)C(OC3CC(OC)C(O)C(C)O3)C(O)C(C)(O)CCC/C=C/C3CC(C)COC3(O)CC(O2)C1C (centres undefined)
Ans: < 0.0251 µM (active)

Q: For the molecule "O=c1/c(=C/c2ccccn2)sc2nc3cc4c(cc3n12)OCCO4" , what GI50 is on record?
Ans: > 100 µM (inactive)

Q: What GI50 value was documented for this molecule, C=CC(c1ccccc1)[C@@]1(OC(C)=O)C(=O)C(=O)OC1C1COC(C)(C)O1 (some centres undefined) ?
Ans: 10.9 µM (inactive)

Q: # get_value(readout='GI50', item= "CC(C)CNCCc1ccccn1" )
Ans: > 100 µM (inactive)

Q: Fill in the blank: the reported GI50 of "Cc1cnc(/C=N\NC(N)=S)c2cccc(N)c12" is ____.
Ans: 2.27 µM (inactive)

Q: Entry COC(=O)CNC(=O)CCC(C)[C@H]1CCC2C3C(C[C@H](OC(C)=O)[C@@]21C)[C@@]1(C)CCC2(C[C@H]1C[C@H]3OC(C)=O)OOC1(CC[C@]3(C)C4C[C@H](OC(C)=O)[C@@]5(C)C(CC[C@@H]5C(C)CCC(=O)NCC(=O)OC)C4[C@H](OC(C)=O)C[C@@H]3C1)OO2 (some centres undefined) : reported GI50 = ?
Ans: 1.64 µM (inactive)

Q: What value of GI50 has been recorded for this entry: "CN(C)CCCN1c2ccc([N+](=O)[O-])cc2CCc2cc([N+](=O)[O-])ccc21"
Ans: 16.4 µM (inactive)

Q: Look up GI50: Cc1ccc(S(N)(C(=O)Nc2cccc3ccccc23)[N+](=O)[O-])cc1 (centres undefined)
Ans: 50.4 µM (inactive)

Q: Entry under review: "CNn1c(-c2ccccc2)n[nH]c1=O" . Reported GI50?
Ans: > 100 µM (inactive)

Q: Quick one: GI50 for CC(NC(=O)C(Cc1ccc(OC(=O)c2ccccc2)cc1)NC(=O)OC(C)(C)C)C(=O)NCC(=O)NC(Cc1ccccc1)NC(=O)OCc1ccccc1 (centres undefined) ?
Ans: > 100 µM (inactive)

Q: Endpoint output: GI50 of "C/C(=N\NC(=S)N1CCN(c2ccccn2)CC1)c1ccccn1" . Value?
Ans: 0.0304 µM (active)

Data origin: ChEMBL document CHEMBL1201862
